Molecular target: Metabotropic glutamate receptor 8 (Homo sapiens, UniProt O00222)
Sequence (O00222 whole entry): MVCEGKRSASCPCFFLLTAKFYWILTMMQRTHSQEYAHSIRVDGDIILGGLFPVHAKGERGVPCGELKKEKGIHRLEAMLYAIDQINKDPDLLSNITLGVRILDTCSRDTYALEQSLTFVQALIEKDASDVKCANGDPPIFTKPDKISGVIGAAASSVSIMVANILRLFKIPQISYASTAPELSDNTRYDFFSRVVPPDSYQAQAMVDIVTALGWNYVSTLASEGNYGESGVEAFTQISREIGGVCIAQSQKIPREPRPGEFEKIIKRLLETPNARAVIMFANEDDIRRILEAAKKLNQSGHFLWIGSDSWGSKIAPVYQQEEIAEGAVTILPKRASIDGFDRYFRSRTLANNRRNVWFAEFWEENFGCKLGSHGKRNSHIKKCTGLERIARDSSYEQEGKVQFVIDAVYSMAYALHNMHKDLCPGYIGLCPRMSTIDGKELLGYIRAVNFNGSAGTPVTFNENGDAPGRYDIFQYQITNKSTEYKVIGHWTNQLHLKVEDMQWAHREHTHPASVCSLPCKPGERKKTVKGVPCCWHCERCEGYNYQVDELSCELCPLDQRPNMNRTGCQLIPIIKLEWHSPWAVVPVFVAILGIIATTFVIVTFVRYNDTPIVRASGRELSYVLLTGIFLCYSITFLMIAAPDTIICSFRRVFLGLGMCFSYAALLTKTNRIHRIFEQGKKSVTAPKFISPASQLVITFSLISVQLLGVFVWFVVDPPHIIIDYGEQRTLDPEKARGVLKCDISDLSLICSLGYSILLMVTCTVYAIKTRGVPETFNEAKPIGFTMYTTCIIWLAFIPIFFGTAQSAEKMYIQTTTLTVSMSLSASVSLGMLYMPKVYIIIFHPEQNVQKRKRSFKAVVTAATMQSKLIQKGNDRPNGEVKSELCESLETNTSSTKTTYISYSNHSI
Assay: Tested for […] in non-neuronal cells (RGT) expressing human Metabotropic glutamate receptor 8 by measuring L-AP4 (0.3 uM of forskolin) (15 uM)-stimulated cAMP formation
pIC50: −log10 of the molar value.
Listed here: items and their measured pIC50.

smiles=N[C@@H](C[C@H](CC(c1ccccc1)c1ccccc1)C(=O)O)C(=O)O outcome_measure=pIC50 recorded_result="< 3.52"

Please look at the following compound next.
Ask: State its pIC50 on Metabotropic glutamate receptor 8 (Homo sapiens, UniProt O00222): "N[C@@H](C[C@H](CCCC(c1ccccc1)c1ccccc1)C(=O)O)C(=O)O"
Reply: < 3.52

Cited source: ChEMBL document CHEMBL1131280
